Here, each record is paired with measured BMPRIa binding (relative to wild type = 1.0) data.
# target.under.test: T1, BMPRIa receptor-Fc fusion (UniProt P36894 24-152, limits assumed)
# T1 construct: also called ALK-3
# test.method.notes: ELISA-like plate assay, captured BMP-7 from conditioned media, receptor-Fc detection
quantity.kind: BMPRIa binding (relative to wild type = 1.0)

[[record]]
binder = "BMP-7 variant L90E (ligand, In conditioned media; numbering on mature BMP-7) STGGKQRSQNRSKTPKNQEALRMASVAENSSSDQRQACKKHELYVSFRDLGWQDWIIAPEGYAAYYCEGECAFPLNSYMNATNHAIVQTEVHFINPETVPKPCCAPTQLNAISVLYFDDSSNVILKKYRNMVVRACGCH"
test_result = "0.2 relative to wild type"

[[record]]
binder = "BMP-7 variant F117Y (ligand, In conditioned media; numbering on mature BMP-7) STGGKQRSQNRSKTPKNQEALRMASVAENSSSDQRQACKKHELYVSFRDLGWQDWIIAPEGYAAYYCEGECAFPLNSYMNATNHAIVQTLVHFINPETVPKPCCAPTQLNAISVLYYDDSSNVILKKYRNMVVRACGCH"
test_result = "1.07 relative to wild type"

[[record]]
binder = "BMP-7 variant W52A (ligand, In conditioned media; numbering on mature BMP-7) STGGKQRSQNRSKTPKNQEALRMASVAENSSSDQRQACKKHELYVSFRDLGAQDWIIAPEGYAAYYCEGECAFPLNSYMNATNHAIVQTLVHFINPETVPKPCCAPTQLNAISVLYFDDSSNVILKKYRNMVVRACGCH"
test_result = "0.92 relative to wild type"

[[record]]
binder = "BMP-7 variant F73N (ligand, In conditioned media; numbering on mature BMP-7) STGGKQRSQNRSKTPKNQEALRMASVAENSSSDQRQACKKHELYVSFRDLGWQDWIIAPEGYAAYYCEGECANPLNSYMNATNHAIVQTLVHFINPETVPKPCCAPTQLNAISVLYFDDSSNVILKKYRNMVVRACGCH"
test_result = "0.51 relative to wild type"

[[record]]
binder = "BMP-7 variant L21G (ligand, In conditioned media; numbering on mature BMP-7) STGGKQRSQNRSKTPKNQEAGRMASVAENSSSDQRQACKKHELYVSFRDLGWQDWIIAPEGYAAYYCEGECAFPLNSYMNATNHAIVQTLVHFINPETVPKPCCAPTQLNAISVLYFDDSSNVILKKYRNMVVRACGCH"
test_result = "2.53 relative to wild type"

[[record]]
binder = "BMP-7 variant S77H (ligand, In conditioned media; numbering on mature BMP-7) STGGKQRSQNRSKTPKNQEALRMASVAENSSSDQRQACKKHELYVSFRDLGWQDWIIAPEGYAAYYCEGECAFPLNHYMNATNHAIVQTLVHFINPETVPKPCCAPTQLNAISVLYFDDSSNVILKKYRNMVVRACGCH"
test_result = "0.29 relative to wild type"

[[record]]
binder = "BMP-7 variant N76T (ligand, In conditioned media; numbering on mature BMP-7) STGGKQRSQNRSKTPKNQEALRMASVAENSSSDQRQACKKHELYVSFRDLGWQDWIIAPEGYAAYYCEGECAFPLTSYMNATNHAIVQTLVHFINPETVPKPCCAPTQLNAISVLYFDDSSNVILKKYRNMVVRACGCH"
test_result = "0.94 relative to wild type"

